protocol-summary: Mouse blood and tissue PK (LC/MS-MS)
Type: in vivo
assay-conditions: mouse, whole blood, oral, 40 mg/kg, Model Development Dataset; 40mg/kg_study8; 1 h; read-out: Blood Concentration
experimental-endpoint: concentration at 1 h (nM)

# smiles-str, observed-measurement
records = [
    ("CCn1c(-c2cc(N3CCN(C)CC3)cnc2[C@H](C)OC)c2c3cc(ccc31)-c1csc(n1)C[C@H](NC(=O)[C@H]1C[C@@H]1C)C(=O)N1CCC[C@H](N1)C(=O)OCC(C)(C)C2", 1580),
]

====

protocol-summary: Mouse blood and tissue PK (LC/MS-MS)
Format: in vivo
assay-conditions: BALB/c nude, mouse, colon, oral, 50 mg/kg, sheet colon; Capan-2, Capan-2 #3_PHA 2023; 50 mg/kg, 24h; read-out: RMC-6236 (nM) Tumor
experimental-endpoint: concentration at 24 h

# smiles-str, observed-measurement
data = [
    ("CCn1c(-c2cc(N3CCN(C)CC3)cnc2[C@H](C)OC)c2c3cc(ccc31)-c1csc(n1)C[C@H](NC(=O)[C@H]1C[C@@H]1C)C(=O)N1CCC[C@H](N1)C(=O)OCC(C)(C)C2", "147 nM"),
]

====

System: panel of 78 cancer cell lines
protocol-summary: Cell panel 3D methylcellulose CellTiter-Glo proliferation
Assay type: cell-based
assay-conditions: Homo sapiens, SK-MEL-2, SKMEL2; NRAS Q61R; Skin; read-out: Proliferation Inhibition (EC50)
pEC50: −log10 of the molar value.

# smiles-str, pEC50
records = [
    ("CCn1c(-c2cc(N3CCN(C)CC3)cnc2[C@H](C)OC)c2c3cc(ccc31)-c1csc(n1)C[C@H](NC(=O)[C@H]1C[C@@H]1C)C(=O)N1CCC[C@H](N1)C(=O)OCC(C)(C)C2", 7.41),
]

====

System: panel of 78 cancer cell lines
protocol-summary: Cell panel 3D methylcellulose CellTiter-Glo proliferation
Format: cell-based
assay-conditions: Homo sapiens, LCLC-97TM1, LCLC97TM1; KRAS G12V; Lung; read-out: Proliferation Inhibition (EC50)
pEC50: −log10 of the molar value.

# smiles-str, pEC50
records = [
    ("CCn1c(-c2cc(N3CCN(C)CC3)cnc2[C@H](C)OC)c2c3cc(ccc31)-c1csc(n1)C[C@H](NC(=O)[C@H]1C[C@@H]1C)C(=O)N1CCC[C@H](N1)C(=O)OCC(C)(C)C2", 8.96),
]

====

protocol-summary: Mouse blood and tissue PK (LC/MS-MS)
Assay type: in vivo
assay-conditions: BALB/c nude, mouse, tumor, oral, 100 mg/kg, Capan-2, study Capan-2 #3_PHA 2023, 100 mg/kg, 4h; read-out: RMC-6236 (nM) Tumor

# smiles-str, unit, concentration at 4 h
measured = [
    ("CCn1c(-c2cc(N3CCN(C)CC3)cnc2[C@H](C)OC)c2c3cc(ccc31)-c1csc(n1)C[C@H](NC(=O)[C@H]1C[C@@H]1C)C(=O)N1CCC[C@H](N1)C(=O)OCC(C)(C)C2", "nM", 17300),
]

====

protocol-summary: Mouse blood and tissue PK (LC/MS-MS)
Format: in vivo
assay-conditions: Balb/c nude, mouse, tumor (subcutaneous xenograft), sc, 25 mg/kg, LU99-luc SC (25 mg/kg), subcutaneous xenograft tumor; read-out: Tumor t1/2 (converted)
experimental-endpoint: half-life (h)

# compound, observed-measurement
measured = [
    ("CCn1c(-c2cc(N3CCN(C)CC3)cnc2[C@H](C)OC)c2c3cc(ccc31)-c1csc(n1)C[C@H](NC(=O)[C@H]1C[C@@H]1C)C(=O)N1CCC[C@H](N1)C(=O)OCC(C)(C)C2 [RMC-6236]", 25.3),
]
